assayed-system: Mast/stem cell growth factor receptor Kit (Homo sapiens) (UniProt P10721);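 also: values given as mean inhibition of KIT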
Sequence (P10721 whole entry): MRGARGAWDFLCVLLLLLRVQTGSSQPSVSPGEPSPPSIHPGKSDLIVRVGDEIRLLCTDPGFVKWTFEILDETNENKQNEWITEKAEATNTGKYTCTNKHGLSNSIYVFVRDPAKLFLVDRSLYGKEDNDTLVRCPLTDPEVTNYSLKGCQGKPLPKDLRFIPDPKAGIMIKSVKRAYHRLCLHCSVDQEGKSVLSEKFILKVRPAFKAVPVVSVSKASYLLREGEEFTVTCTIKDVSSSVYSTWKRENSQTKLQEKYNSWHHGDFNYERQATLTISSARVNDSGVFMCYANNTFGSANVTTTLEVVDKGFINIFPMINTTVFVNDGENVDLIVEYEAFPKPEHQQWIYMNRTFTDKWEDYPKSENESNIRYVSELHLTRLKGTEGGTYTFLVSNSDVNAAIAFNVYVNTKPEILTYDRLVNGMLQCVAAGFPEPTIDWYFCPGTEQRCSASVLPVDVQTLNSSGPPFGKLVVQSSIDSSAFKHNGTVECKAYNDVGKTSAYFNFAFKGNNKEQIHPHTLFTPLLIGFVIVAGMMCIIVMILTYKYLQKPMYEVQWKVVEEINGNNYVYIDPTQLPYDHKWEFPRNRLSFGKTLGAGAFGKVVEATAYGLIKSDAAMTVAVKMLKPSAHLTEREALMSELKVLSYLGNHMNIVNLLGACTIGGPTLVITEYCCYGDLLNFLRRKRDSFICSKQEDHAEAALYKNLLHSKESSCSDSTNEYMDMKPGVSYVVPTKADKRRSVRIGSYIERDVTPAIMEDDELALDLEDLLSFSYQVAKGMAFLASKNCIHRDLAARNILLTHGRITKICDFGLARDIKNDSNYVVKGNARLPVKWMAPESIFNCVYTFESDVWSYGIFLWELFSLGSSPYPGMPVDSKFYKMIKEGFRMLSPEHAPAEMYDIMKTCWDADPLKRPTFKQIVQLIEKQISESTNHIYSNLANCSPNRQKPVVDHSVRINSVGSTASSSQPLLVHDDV
test-context: at 1 µM
measurement-label: inhibition

Below, each entry is followed by its recorded inhibition result.
cpd-smiles | assayed-system | inhibition
CCn1c(-c2nonc2N)nc2ccncc21 | Mast/stem cell growth factor receptor Kit (Homo sapiens) (UniProt P10721) | -2.36%
COc1ccc(-c2ccncc2)cc1C(N)=O | Mast/stem cell growth factor receptor Kit (Homo sapiens) (UniProt P10721) | 8.81%
Fc1cccc(COc2ccc(Nc3ncnc4cc(-c5ccc[nH]5)sc34)cc2Cl)c1 | Mast/stem cell growth factor receptor Kit (Homo sapiens) (UniProt P10721) | 2.05%

Hi, could you look up inhibition for each item in my list?
1. Cc1ccc(C(=O)NC2CCCCC2)cc1-c1ccc(C(=O)NCC2CC2)cc1
2. Nc1ncnc2occ(-c3ccc(NC(=O)Nc4cc(C(F)(F)F)cc(C(F)(F)F)c4)cc3)c12
3. COc1cc2c(cc1Nc1nc(N3CCc4ccccc43)c3cc[nH]c3n1)N(C(=O)CN(C)C)CC2
4. CCn1c(-c2nonc2N)nc2cnc(Oc3cccc(NC(=O)c4ccc(OCCN5CCOCC5)cc4)c3)cc21
5. NS(=O)(=O)c1cccc(-c2ccc3c(NC(=O)C4CC4)n[nH]c3c2)c1

["4.9%", "90.6%", "5.18%", "3.53%", "0.12%"]

Hi, could you look up inhibition for each item in my list?
1. COc1cc(C)c(NC(=O)CN(C)C)cc1Nc1nc(Nc2cccc(F)c2C(N)=O)c2cc[nH]c2n1
2. O=C(Nc1n[nH]c2nc(-c3ccco3)c(Br)cc12)C1CC1
3. Fc1cccc(COc2ccc(Nc3ncnc4sc(-c5cccs5)cc34)cc2Cl)c1

["4.07%", "4.71%", "6.67%"]

Hi, could you look up inhibition for each item in my list?
1. COc1ccc(-c2coc3ncnc(N)c23)cc1
2. COc1cc2ncn(-c3cc(O[C@H](C)c4ccccc4Cl)c(C(N)=O)s3)c2cc1OC
3. CCc1cccc(NC(=O)Nc2ccc(Oc3ccc4nc(NC(=O)OC)[nH]c4c3)cc2)c1
4. c1cnn2ncc(-c3ccnc(Nc4ccc5c(c4)OCCO5)n3)c2c1
5. CCn1c(-c2nonc2N)nc2cncc(C(=O)N3CCNCC3)c21
6. CCn1c(-c2nonc2N)nc2c(C#CC(C)(C)O)nc(OC[C@@H](N)c3ccccc3)cc21
7. Cn1cc(C=C2C(=O)Nc3cccnc32)c2ccccc21
8. COC(=O)Nc1nc2cc(Oc3ccc(NC(=O)Nc4cccc(C(=O)O)c4)cc3)ccc2[nH]1

21.7%
27.1%
93%
106%
7.52%
2.86%
52.7%
18.8%
